Hey, just so you know, these numbers are from patent US12629363B2.

- target: BK B2 receptor (Homo sapiens, UniProt P30411)
- Sequence (P30411 whole entry): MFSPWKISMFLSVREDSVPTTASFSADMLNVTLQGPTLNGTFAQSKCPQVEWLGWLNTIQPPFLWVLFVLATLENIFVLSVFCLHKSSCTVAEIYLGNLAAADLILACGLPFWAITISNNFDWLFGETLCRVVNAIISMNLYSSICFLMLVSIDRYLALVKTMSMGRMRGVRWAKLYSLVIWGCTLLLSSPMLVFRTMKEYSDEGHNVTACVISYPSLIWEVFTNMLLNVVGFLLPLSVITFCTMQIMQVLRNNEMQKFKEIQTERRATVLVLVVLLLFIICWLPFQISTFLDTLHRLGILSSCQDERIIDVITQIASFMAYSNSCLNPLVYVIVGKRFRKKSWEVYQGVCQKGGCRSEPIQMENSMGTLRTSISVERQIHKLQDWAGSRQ
- measurement_protocol: Bradykinin challenge study, PK/PD (Example 3)
- Assay type: in vivo
- cond: corrected for plasma protein binding 96.2%; read-out: free plasma concentration associated with EC50 of 2.4 ng/ml
recorded_endpoint: pEC50
Kindly note that pEC50 refers to -log10 of the concentration in mol/L and answer with the value alone.

Q. // map [2H][C@@](C)(NC(=O)COC(F)F)c1cc(F)cc(Cl)c1COc1cccc2c(-c3ncnn3C)cc(C)nc12 to recorded pEC50 (system: BK B2 receptor (Homo sapiens, UniProt P30411))
A. 9.77

---

- measurement_protocol: Single ascending dose study in healthy volunteers, plasma PK (Example 2)
- Type: in vivo, human
- cond: human, plasma, oral, 22 mg, after HCHF breakfast; mean; read-out: C12h
recorded_endpoint: concentration at 12 h (ng/mL)
Enter your answer as a number in ng/mL; do not include the unit.

Q. Data request, read-out concentration at 12 h, for [2H][C@@](C)(NC(=O)COC(F)F)c1cc(F)cc(Cl)c1COc1cccc2c(-c3ncnn3C)cc(C)nc12 [compound of formula (I)]
A. 19.6

---

- measurement_protocol: Single ascending dose study in healthy volunteers, plasma PK (Example 2)
- Type: in vivo, human
- cond: human, plasma, oral, 22 mg, fasted; mean; read-out: Vz/F
recorded_endpoint: Vd/F (L)
Provide the reading as a plain figure in L.

Q. Please look up its Vd/F: [2H][C@@](C)(NC(=O)COC(F)F)c1cc(F)cc(Cl)c1COc1cccc2c(-c3ncnn3C)cc(C)nc12
A. 252

---

- measurement_protocol: Single ascending dose study in healthy volunteers, plasma PK (Example 2)
- Type: in vivo, human
- cond: human, plasma, oral, 22 mg, after HCHF breakfast; mean; read-out: C0.25h
recorded_endpoint: concentration at 0.25 h (ng/mL)
Just the number please, in ng/mL, no unit attached.

Q. So what does the record say about concentration at 0.25 h for [2H][C@@](C)(NC(=O)COC(F)F)c1cc(F)cc(Cl)c1COc1cccc2c(-c3ncnn3C)cc(C)nc12 [compound of formula (I)] ?
A. 48.3

---

- measurement_protocol: Single ascending dose study in healthy volunteers, plasma PK (Example 2)
- Type: in vivo, human
- cond: human, plasma, oral, 4.5 mg, fasted; mean
recorded_endpoint: Cmax
Dear colleague, please send the value followed by its unit.

Q. Quick one: Cmax for [2H][C@@](C)(NC(=O)COC(F)F)c1cc(F)cc(Cl)c1COc1cccc2c(-c3ncnn3C)cc(C)nc12 [compound of formula (I)] ?
A. 32.9 ng/mL
